Molecular target: Nuclear receptor subfamily 4 group A member 2 (Homo sapiens) (UniProt P43354)
Sequence (P43354 whole entry, looked up): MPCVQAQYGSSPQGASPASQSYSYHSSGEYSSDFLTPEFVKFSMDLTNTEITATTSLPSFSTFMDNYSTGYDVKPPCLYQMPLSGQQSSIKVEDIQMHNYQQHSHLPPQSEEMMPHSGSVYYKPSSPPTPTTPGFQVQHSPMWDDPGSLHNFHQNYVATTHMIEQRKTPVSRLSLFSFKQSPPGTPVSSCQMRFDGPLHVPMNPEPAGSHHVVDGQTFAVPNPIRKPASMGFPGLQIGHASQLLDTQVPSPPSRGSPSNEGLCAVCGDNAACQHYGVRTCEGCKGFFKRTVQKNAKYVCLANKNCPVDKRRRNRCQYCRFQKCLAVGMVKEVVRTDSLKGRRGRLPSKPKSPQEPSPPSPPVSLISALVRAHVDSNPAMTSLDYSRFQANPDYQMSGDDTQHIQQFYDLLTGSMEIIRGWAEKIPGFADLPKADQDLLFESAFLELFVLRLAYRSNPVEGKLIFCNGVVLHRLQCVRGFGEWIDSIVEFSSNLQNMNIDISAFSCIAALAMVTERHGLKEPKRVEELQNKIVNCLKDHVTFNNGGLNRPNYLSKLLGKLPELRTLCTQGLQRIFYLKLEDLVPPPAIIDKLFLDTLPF
Experiment: ATG_NURR1_TRANS: Attagene TRANS-FACTORIAL HepG2 Assay for human Nuclear Receptor Related Protein 1 (NURR1) (AID 2282985)
Details: HepG2 Attagene TRANS reporter, mRNA readout
Method: ATG_TRANS is a cell-based, multiplexed-readout assay that uses HepG2, a human liver cell line, with measurements taken at 24 hours after chemical dosing in a 24-well plate.ATG_NURR1_TRANS is one of 30 assay component(s) measured or calculated from the ATG_TRANS assay. […] This assay endpoint, ATG_NURR1_TRANS, was analyzed in the positive analysis fitting direction relative to DMSO as the negative control and baseline of activity. […]
Records with an inconclusive call do not appear. Activity calls are given as the source filed them. How the source made its calls: active means hit-call score of the fitted dose curve at least 0.9, where 1 is the maximum; inconclusive means response in the unintended direction; inactive means score below 0.9.
Hi! Could you answer with just one of these? yes = active, no = inactive

Some entries whose results are on file:
N#Cc1c(-c2ccc(Cl)cc2)[nH]c(C(F)(F)F)c1Br : no
C=CC(=O)OCC(CC)(COC(=O)C=C)COC(=O)C=C : no
CC(Cl)(Cl)C(=O)O : no
CCOP(=S)(NC(C)C)Oc1ccccc1C(=O)OC(C)C (configuration not stated) : yes

Look up the recorded call for CC(O)C(F)(F)C(F)(F)F (configuration not stated) in this test.
no

Look up the recorded call for `CCOc1ccc(C(C)(C)COCc2cccc(Oc3ccccc3)c2)cc1` in this test.
no

Look up the recorded call for `OCC(F)(F)OC(F)(F)C(F)(F)OC(F)(F)C(F)(F)OC(F)(F)CO` in this test.
no

Look up the recorded call for `OCC(F)(F)OC(F)(F)C(F)(F)OC(F)(F)C(F)(F)OC(F)(F)F` in this test.
no

Look up the recorded call for `CC(C)(C)N(NC(=O)c1ccc(Cl)cc1)C(=O)c1ccccc1` in this test.
no

Look up the recorded call for `O=c1[nH]c2ccccc2c(=O)o1` in this test.
no

Look up the recorded call for `ClC(Cl)=C(c1ccc(Cl)cc1)c1ccccc1Cl` in this test.
no

Look up the recorded call for `Nc1ccc(Sc2ccc(N)cc2)cc1` in this test.
no

Look up the recorded call for `O=C(O)CF` in this test.
no

---

read-out: Matrix Metallopeptidase 1 (MMP1), MMP1 (gene 4312); assay: BSK_BE3C_MMP1: BioMAP Diversity Plus: BE3C Assay for Matrix Metallopeptidase 1 (MMP1) Biomarker Activity (AID 2283024); settings: primary human bronchial epithelial cells; actives raise or lower the signal
Active and inactive are the calls of the source. The calls were made as follows: active = hit-call score of the fitted dose curve at least 0.9, where 1 is the maximum; inactive = score below 0.9.
MEASUREMENT KIND: AC50

Here is how some molecules turned out for AC50.
ClC(Cl)(Cl)c1ccccc1 : inactive
Cc1ccc(N)cc1N : inactive
Cc1ccc([N+](=O)[O-])cc1C : inactive
CC(C)Nc1ccc(Nc2ccccc2)cc1 : inactive
CC(C)(C)OOC(C)(C)C : inactive

Would you kindly share the measured AC50 for `Nc1ccc2ccccc2c1` ?
2.92 µM (active)

Would you kindly share the measured AC50 for CC(Cl)CN(C)C (stereo not drawn) ?
inactive

Would you kindly share the measured AC50 for `C=CC(=O)OCC(CC)(COC(=O)C=C)COC(=O)C=C` ?
11.4 µM (active)

---

Molecular target: human Phosphoinositide 3-kinase alpha (PI3Ka), PIK3CA (gene 5290)
Experiment: NVS_ENZ_hPI3Ka: NovaScreen (NVS) Enzymatic Assay for human Phosphoinositide 3-kinase alpha (PI3Ka) (AID 2283196)
Protocol: NVS_ENZ_hPI3Ka is a biochemical, single-readout assay that uses extracted gene-proteins in a cell-free assay. Measurements were taken 1 hour after chemical dosing in a 384-well plate.NVS_ENZ_hPI3Ka is one of one assay component(s) measured or calculated from the NVS_ENZ_hPI3Ka assay. […] This assay endpoint, NVS_ENZ_hPI3Ka, was analyzed in the positive analysis fitting direction relative to DMSO as the negative control and baseline of activity. […]
Records with an inconclusive call do not appear. The source made the active and inactive calls. How the source made its calls: active means hit-call score of the fitted dose curve at least 0.9, where 1 is the maximum; inconclusive means response in the unintended direction; inactive means score below 0.9.
Hi! Could you answer with just one of these? T = active, F = inactive

Some entries whose results are on file:
ClC1=C(Cl)C2(Cl)C3C(Cl)C(Cl)CC3C1(Cl)C2(Cl)Cl (centres undefined) : F
Cc1ccc2c(c1N)C(=O)c1ccccc1C2=O : F
CC1(C)CN=C(NN=C(/C=C/c2ccc(C(F)(F)F)cc2)/C=C/c2ccc(C(F)(F)F)cc2)NC1 : T

Look up the recorded call for `CSC(C)(C)C=NO` in this test.
F

---

Assay: Tanguay_ZF_120hpf_PFIN_legacy: (Legacy) Oregon State University Tanguay Lab 120 Hour Post-fertilization zebrafish Assay for Pectoral Fin Malformation (AID 2283648);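 further: each larva judged yes or no for fin defect by brightfield with dead larvae skipped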
Experimental: Tanguay_ZF_120hpf_legacy is a whole embryo, multiplexed endpoint assay using zebrafish larvae exposed for 120 hours post fertilization on a 96-well plate.Tanguay_ZF_120hpf_PFIN_legacy is one of one assay component(s) measured or calculated from the Tanguay_ZF_120hpf_legacy assay. […] This assay endpoint, Tanguay_ZF_120hpf_PFIN_legacy, was analyzed in the positive analysis fitting direction relative to DMSO as the negative control and baseline of activity. […]
Results filed as inconclusive are left out. Activity calls are given as the source filed them. The calls were made as follows: active = hit-call score of the fitted dose curve at least 0.9, where 1 is the maximum; inconclusive = response in the unintended direction; inactive = score below 0.9.
Hi! Could you answer with just one of these? active, inactive

Some entries whose results are on file:
O=P1(N(CCCl)CCCl)NCCCO1 (configuration not stated) : inactive
CCNc1nc(Cl)nc(NC(C)(C)C)n1 : inactive

Consider now this further compound.
Look up the recorded call for `O=C(O)C(Cl)Cl` in this test.
inactive

---

molecular target: Cellular tumor antigen p53 (Homo sapiens); test: TOX21_p53_BLA_p3_ratio: Tox21 HCT-116 p53 Agonism Beta-lactamase Assay, Ratio, Phase 3 (AID 2283596)
Results filed as inconclusive are left out. Calls of active or inactive are those of the source. The calls were made as follows: active = hit-call score of the fitted dose curve at least 0.9, where 1 is the maximum; inconclusive = response in the unintended direction; inactive = score below 0.9.
Hi! Could you answer with just one of these? T = active, F = inactive

O=C(O)C1C(C(=O)O)C2(Cl)C(Cl)=C(Cl)C1(Cl)C2(Cl)Cl (stereo not given) : F
Cc1ccc2c(c1N)C(=O)c1ccccc1C2=O : F
O=P1(N(CCCl)CCCl)NCCCO1 (stereo not given) : F
Nc1ccc2ccccc2c1 : F
CCOP(=S)(OCC)SCn1nnc2ccccc2c1=O : F
CCOS(=O)(=O)OCC : F
Cc1c([N+](=O)[O-])cc2c(c1[N+](=O)[O-])C(C)(C)CC2(C)C : F
CCC(C)(C)c1ccc(O)cc1 : F

Look up the recorded call for CCC1(c2ccccc2)C(=O)N=C(O)NC1=O (stereo not given) in this test.
F

Look up the recorded call for `c1ccc2c(c1)Nc1ccccc1S2` in this test.
F

Look up the recorded call for CCCCOCC1CO1 (stereo not given) in this test.
F

Look up the recorded call for `CCOC(=O)c1ccccc1C(=O)OCC` in this test.
F

Look up the recorded call for `Nc1ccc(Cl)cc1` in this test.
F

Look up the recorded call for `O=NN1CCCC1` in this test.
F

Look up the recorded call for `c1nc[nH]n1` in this test.
F

---

read-out: Cytochrome P450 2C19 (Homo sapiens) (UniProt P33261); assay: LTEA_HepaRG_CYP2C19: Life Technologies and Expression Analysis (LTEA) Assay for CYP2C19 using HepaRG (AID 2283482); settings: mRNA level, 48 h; actives raise or lower the signal
Sequence (P33261 whole entry, looked up): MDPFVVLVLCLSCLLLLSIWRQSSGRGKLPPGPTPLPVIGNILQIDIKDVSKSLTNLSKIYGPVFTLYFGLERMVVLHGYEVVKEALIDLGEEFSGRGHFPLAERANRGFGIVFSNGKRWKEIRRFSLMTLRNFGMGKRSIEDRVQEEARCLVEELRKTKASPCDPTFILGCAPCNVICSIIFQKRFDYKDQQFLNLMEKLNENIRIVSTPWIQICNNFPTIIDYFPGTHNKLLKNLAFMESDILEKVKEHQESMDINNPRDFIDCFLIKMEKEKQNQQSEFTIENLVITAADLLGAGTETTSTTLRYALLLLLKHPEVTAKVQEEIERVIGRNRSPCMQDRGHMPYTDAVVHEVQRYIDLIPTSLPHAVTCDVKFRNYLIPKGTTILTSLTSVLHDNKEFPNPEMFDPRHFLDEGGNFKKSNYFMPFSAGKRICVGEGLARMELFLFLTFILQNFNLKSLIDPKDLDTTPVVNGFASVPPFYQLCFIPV
Activity calls are given as the source filed them. The calls were made as follows: active = hit-call score of the fitted dose curve at least 0.9, where 1 is the maximum; inactive = score below 0.9.
MEASUREMENT KIND: AC50

Here is how some molecules turned out for AC50.
CN(C)C(=O)Cl : inactive
O=P1(N(CCCl)CCCl)NCCCO1 (stereo not given) : inactive
CC(Cl)(Cl)C(=O)O : inactive
ClC1=C(Cl)C2(Cl)C3C(Cl)C(Cl)CC3C1(Cl)C2(Cl)Cl (stereo not given) : 2.42 µM (active)
CCC(C)(C)c1ccc(O)cc1 : inactive
CCCCCCCc1ccc(O)cc1 : inactive

Would you kindly share the measured AC50 for `CCNc1nc(Cl)nc(NC(C)(C)C)n1` ?
2.46 µM (active)

Would you kindly share the measured AC50 for `c1ccc(OP(Oc2ccccc2)Oc2ccccc2)cc1` ?
inactive

Would you kindly share the measured AC50 for `CCOP(=S)(OCC)SCSCC` ?
11.2 µM (active)

Would you kindly share the measured AC50 for `COCCOCCO` ?
2.31 µM (active)

Would you kindly share the measured AC50 for `Nc1ccc2ccccc2c1` ?
26.7 µM (active)

Would you kindly share the measured AC50 for CC(Cc1ccc(OCC(=O)O)cc1)NCC(O)c1csc(C(F)(F)F)n1 (stereo not given) ?
inactive

Would you kindly share the measured AC50 for `O=C(O)C(Cl)Cl` ?
inactive

---

Read-out: urokinase plasminogen activator (uPA), PLAU (gene 5328)
Test: BSK_KF3CT_uPA: BioMAP Diversity Plus: KF3CT Assay for urokinase plasminogen activator (uPA) Biomarker Activity (AID 2283075)
Settings: primary human keratinocytes with fibroblasts; actives raise or lower the signal
Procedure: BSK_KF3CT is a cell-based, multiplexed-readout assay that uses keratinocytes and foreskin fibroblasts, a human skin primary cell co-culture, with measurements taken at 24 hours after chemical dosing in a 96-well plate.BSK_KF3CTA is an assay component measured in the BSK_KF3CT assay. It measures uPA antibody related to regulation of gene expression using ELISA technology.Data from the assay component BSK_KF3CTA was analyzed into 1 assay endpoint. […]
Calls of active or inactive are those of the source. Rule for the calls: active = hit-call score of the fitted dose curve at least 0.9, where 1 is the maximum; inactive = score below 0.9.
Hi! Could you answer with just one of these? active, inactive

Some entries whose results are on file:
CCOc1ccc(C(C)(C)COCc2cccc(Oc3ccccc3)c2)cc1 : inactive
O=S(=O)(F)C(F)(F)C(F)(F)C(F)(F)C(F)(F)C(F)(F)C(F)(F)C(F)(F)C(F)(F)F : inactive

Look up the recorded call for O=C(O)C(F)(OC(F)(F)C(F)(F)C(F)(F)F)C(F)(F)F (stereo not given) in this test.
inactive

Look up the recorded call for `CC(Cl)(Cl)C(=O)O` in this test.
inactive

Look up the recorded call for `CCOP(=S)(OCC)SCSc1ccc(Cl)cc1` in this test.
active

Look up the recorded call for `COP(=O)(O)OC` in this test.
inactive

Look up the recorded call for `O=c1ssc(Cl)c1Cl` in this test.
active

Look up the recorded call for `N#Cc1cc([N+](=O)[O-])ccc1N` in this test.
inactive

Look up the recorded call for `O=C(O)C(F)(F)OC(F)(F)C(F)(F)OC(F)(F)F` in this test.
inactive

Look up the recorded call for `NC(=O)C(F)(F)C(F)(F)F` in this test.
inactive

Look up the recorded call for CC(O)C(F)(F)C(F)(F)F (stereo not given) in this test.
inactive

Look up the recorded call for `CCOC(=O)c1ccccc1C(=O)OCC` in this test.
inactive

Look up the recorded call for OCC1CO1 (stereo not given) in this test.
inactive

Look up the recorded call for `CCCCc1ccccc1` in this test.
inactive

Look up the recorded call for `CCCCN(CCCC)SN(C)C(=O)Oc1cccc2c1OC(C)(C)C2` in this test.
inactive
